Taken from PubChem BioAssay (NCI).

# System: M14 melanoma
# assay.comment: NCI-60 one-dose screen, 48 h
# applied.conditions: 10 µM unless noted
The panel holds about 83,000 compounds, 20% with a hit somewhere; the sample as a whole holds those more often. The source made the active and inactive calls. How the source made its calls: active means growth percent below 10; inactive means the rest.
Hi there, use one of these labels in your reply, thanks! label 1 for active, label 0 for inactive

Consider the worked cases shown below.
molecule	category.label
CC1Cc2ccc(OCCN(C)C)cc2C1=O (centres undefined)	label 0
COc1cc(C)cc2oc3oc(=N)c(C(=O)c4ccccc4)cc3c(=O)c12	label 0
CCN(CC)CCCNCc1cc(-c2ccccc2)nc2ccccc12	label 1
COc1ccc(/C=C2\N=C(Nc3ccccc3)N(NC(=O)c3ccccn3)C2=O)cc1	label 0
CC1Cc2c(Cl)ncnc2N(C)c2ccc(Cl)cc21 (centres undefined)	label 0

**Query** Could you kindly confirm the outcome this assay logged for CC(C)[C@H]1CCC2=C3CC[C@]45OC(=O)[C@@]6(CCC(C)(C)C[C@H]64)CC[C@@]5(C)[C@]3(C)CC[C@@]21C ?
**Result** label 0

**Query** Outcome? O=C(Nc1cccc(C2=NCCN2)c1)c1cccc(C(=O)Nc2cccc(C3=NCCN3)c2)c1
**Result** label 0

**Query** State the result this test recorded for CCOc1ccc2sc(NS(=O)(=O)c3ccc(N)cc3)nc2c1 .
**Result** label 0

**Query** Test call, this molecule: COc1ccc(C(=O)/C=C/c2ccccn2)c(O)c1
**Result** label 0

**Query** Test call, this molecule: O=C(Nc1ccc(F)cc1)c1ccccc1
**Result** label 0

**Query** Write down the call the test reported for this molecule. Item: COc1cc(NN=C(c2ccc(O)cc2)c2ccc(O)cc2)c([N+](=O)[O-])cc1[N+](=O)[O-]
**Result** label 1

**Query** Per the assay record, what outcome was assigned to COc1ccc(-c2cc(-c3ccccc3)nc(SCCCCCC(=O)NO)n2)cc1 ?
**Result** label 0

**Query** Record lookup: outcome of this test for O=C1CC(c2ccccc2)Cc2nc3ccc(Cl)cc3cc21 (centres undefined) ?
**Result** label 1

**Query** Test call, this molecule: NNC(=O)c1ccc(C(=O)NN)cc1
**Result** label 0

**Query** Fill in: this test's call for CC(=O)OC[C@]12CC[C@@H](C(=O)CBr)[C@@H]1[C@H]1CC[C@@H]3[C@@]4(C)CCCNC(C)(C)[C@@H]4CC[C@@]3(C)[C@]1(C)CC2 is ___
**Result** label 1

**Query** Please let me know the test result on file for C=C(C)[C@@H]1CC[C@]2(C(=O)N3CCN(C)CC3)CC[C@]3(C)[C@H](CC[C@@H]4[C@@]5(C)C/C(=C/c6ccncc6)[C@H](O)C(C)(C)[C@@H]5CC[C@]43C)[C@@H]12 .
**Result** label 1

**Query** Answer briefly: the call reported for CCN1CCN(CC(=O)Nc2nc3ccc(NCc4ccc(Cl)cc4)cc3s2)CC1 in this assay.
**Result** label 1

**Query** # fetch the recorded call for Clc1ccc(/C=N/Nc2nc3ccccc3s2)c(Cl)c1 here
**Result** label 0

**Query** // outcome(item) with item = Cc1cccc(C[C@H](NC(=O)Nc2ccc(Cl)cc2F)C(=O)N[C@@H]2C(=O)N3C[C@H](O)C[C@H]3C(=O)N3CCN(C)C[C@H]3C(=O)N[C@@H](C)C(=O)N3C[C@H](C)C[C@H]3C(=O)O[C@H]2C)c1
**Result** label 0

----------
# Tested on: HCT-116 colon
# assay.comment: NCI-60 one-dose screen, 48 h (100 = growth as untreated, 0 = no growth, -100 = all killed)
# applied.conditions: 10 µM unless noted
# Experimental: Growth inhibition of the HCT-116 human tumor cell line is measured as a screen for anti-cancer activity. Cells are grown in 96 well plates and exposed to the test compound for 48 hours. Compounds are tested at a single concentration, which is 10^-5 M for most compounds. The reported endpoint is percent growth (GI% or GIPRCNT), where numbers from 0 - 100% represent growth inhibition, and numbers from -100% - 0 represent cell death. For example, a value of 40 represents 60% growth inhibition. […]
About 83,000 compounds went through this panel and 20% of them were active in at least one assay; those are over-represented in the sample as a whole. Calls of active or inactive are those of the source. The calls were made as follows: active = growth percent below 10; inactive = the rest.
Measured growth, listed per entry for reference.

Answered examples (5):
mol	growth
CCN(CC)CCCOc1ccc2c(c1)O/C(=C\c1cccc(OC)c1)C2=O	51.8% (inactive)
Fc1cc2[nH]ncc2c2c3c(c(-c4cn[nH]c4)nc12)CCCC3	5.6% (active)
COc1ccc2[nH]c(C(=O)N3CCN(C(=O)OCc4ccc5c(Br)cc(Br)c(O)c5n4)CC3)cc2c1	-87.1% (active)
CC(C)(C)c1cc(C(=O)N2CCC(C(=O)NCCN)CC2)cc(C(C)(C)C)c1	99.4% (inactive)
Brc1ccc2c(c1)CN(C1CCCCC1)CO2	108% (inactive)

**Query** Request the reported growth associated with COc1ccc(-c2cc(-c3ccc(Cl)cc3)nc(NCCCCNc3ccnc4cc(Cl)ccc34)n2)cc1
**Result** 23.4% (inactive)

**Query** State the recorded growth for this entry: COc1cc2c(c(OC)c1OC)-c1ccc(NNC(N)=S)c(=O)cc1[C@@H](NC(C)=O)CC2
**Result** 2.28% (active)

**Query** Reported growth, compound CC(=O)OC[C@]12CC[C@@H](C(=O)CBr)[C@@H]1[C@H]1CC[C@@H]3[C@@]4(C)CCCNC(C)(C)[C@@H]4CC[C@@]3(C)[C@]1(C)CC2 : ____
**Result** -71.2% [100 µM] (active)

**Query** Would you mind telling me what growth value was observed for CCC(Br)(CC)C(=O)c1ccc(OCC(=O)O)c(Cl)c1Cl ?
**Result** 102% (inactive)

----------
# Test system: HS 578T breast
# assay.comment: NCI-60 one-dose screen, 48 h (100 = growth as untreated, 0 = no growth, -100 = all killed)
# applied.conditions: 10 µM unless noted
The panel holds about 83,000 compounds, 20% with a hit somewhere; the sample as a whole holds those more often.
Parameter threshold = 90%. Response is yes when growth meets or exceeds it, else no.

Take a look at these entries with their results.
molecule	assayed.target	category.label
O=C(CCN1CCCCC1)c1ccc2ccccc2c1	HS 578T breast	yes
N#C/C(=C(/O)CCCO)c1nc2ccccc2c(=O)[nH]1	HS 578T breast	yes
COc1ccc2c(c1)C(C)Cc1c(Cl)ncnc1N2C (stereo not given)	HS 578T breast	no

**Query** Does C#C[C@]1(O)CC[C@H]2[C@@H]3CC=C4c5nc(Nc6ccc(OC)cc6OC)sc5CC[C@]4(C)[C@H]3CC[C@@]21C have a reported growth of at least 90%?
**Result** no

**Query** Tell me whether growth is at least 90% here: Nc1nc(Cl)c2ncn(Cc3cc4c(cc3I)OCO4)c2n1
**Result** no

**Query** Has CC1Cc2ccc(OCCN(C)C)cc2C1=O (stereo not given) a recorded growth greater than or equal to 90%?
**Result** yes

**Query** Could you please find out whether CC(C)CCNCC(C)(C)O has growth that meets 90% or exceeds it?
**Result** yes

**Query** Confirm if growth reported for the molecule C#CC(OC(=O)N(C)C)(c1ccccc1)c1ccc(F)cc1 (stereo not given) is 90% or above.
**Result** yes

**Query** Entry CN(Cc1cccc(C(F)(F)F)c1)C(=O)[C@@H](CC(=O)N1CCC(N2CCCCC2)CC1)N1C(=O)[C@@H](N2C(=O)OC[C@@H]2c2ccccc2)[C@H]1/C=C/c1ccccc1 : is its growth no less than 90%?
**Result** no

----------
# System: UACC-62 melanoma
# assay.comment: NCI-60 one-dose screen, 48 h
# applied.conditions: 10 µM unless noted
This is part of a sample that, as a whole, favours compounds with a hit. Of some 83,000 tested, about 20% had one in any assay. Active and inactive are the calls of the source. The calls were made as follows: active = growth percent below 10; inactive = the rest.
// classify into Y for active, N for inactive

Example entries and their recorded answers appear below.
mol	category.label
COc1ccc2c(c1)c(-c1noc(-c3cn(C)c4ncc(F)cc34)n1)cn2C	N
CC(C)=CCC[C@](C)(O)[C@H]1CC[C@]2(C)[C@@H]1CC[C@@H]1[C@@]3(C)CC[C@H](OC(=O)CCC(=O)O)C(C)(C)[C@@H]3CC[C@]12C	Y
Cn1cc(-c2nnc(-c3cn(C)c4ncccc34)o2)c2ccccc21	N
CCCCCCSc1ncnc2nc[nH]c12	N
COc1ccc(NC(=O)Nc2ccc(-c3cccnc3)cc2N2CCC(CO)CC2)cc1	N

**Query** What call does the record list for O=C(NNc1ccc(-c2ccccc2)nn1)c1ccccc1 ?
**Result** N

----------
# Test system: PC-3 prostate
# assay.comment: NCI-60 one-dose screen, 48 h
# applied.conditions: 10 µM unless noted
This is part of a sample that, as a whole, favours compounds with a hit. Of some 83,000 tested, about 20% had one in any assay. Active and inactive are the calls of the source. The calls were made as follows: active = growth percent below 10; inactive = the rest.
Please reply with one of these outcomes: active, inactive

Consider the worked cases shown below.
molecule	category.label
O=C(O)c1ccccc1C(F)(F)F	inactive
CC(C)c1ccc(/C=N/N=C(N)N)cc1	inactive
O=C1COCCN1c1ccc(NCc2cn(Cc3cccc4ccccc34)c3ccccc23)cc1	inactive
COC(=O)c1cc2c(=O)[nH]cc3c2c(n1)CCC3	inactive

**Query** Hey, what did the test say about CC(C)C1=NOC(=O)C1=Cc1cn(-c2ccccc2)nc1-c1ccc(Cl)cc1 ?
**Result** inactive

**Query** Can you look up the reported call for C=C(C)[C@@H]1CC[C@]2(C(N)=O)CC[C@]3(C)[C@H](CC[C@@H]4[C@@]5(C)CC[C@H](O)C(C)(C)[C@@H]5CC[C@]43C)[C@@H]12 for me?
**Result** active

**Query** Field: outcome | Entry: O=C(Nc1ccc(C(=O)/C=C/c2ccc(N3CCOCC3)cc2)cc1)Nc1ccc([N+](=O)[O-])cc1
**Result** inactive

**Query** What was the test verdict on CCCSc1nc(N)nc2nc[nH]c12 ?
**Result** inactive

**Query** Assay result, entry CCc1ccc(NC(=O)N[C@@H](Cc2cc(F)cc(F)c2)C(=O)N[C@@H]2C(=O)N3C[C@H](O)C[C@H]3C(=O)N3CCOC[C@H]3C(=O)N[C@@H](C)C(=O)N3C[C@H](C)C[C@H]3C(=O)O[C@H]2C)cc1 — outcome?
**Result** inactive
